Listed here are compounds together with their documented melting point.

compound: C=CCN1c2ccccc2-c2noc3c2C1CCC3 (centres undefined)
melting point: 114 to 117 °C
//
compound: CCCc1ccc(C(=O)Nc2ccc(C(=O)c3ccccc3)cc2)cc1
melting point: 119 to 122 °C
//
compound: CCOC(=O)c1c(CN(CC)CC)nc2cc(OC)c(OC)cc2c1-c1ccc(Cl)c(Cl)c1
melting point: 157 to 158 °C
//
compound: Cc1nc2cc(F)ccc2c(=O)n1C1CCC(=O)NC1=O (centres undefined)
melting point: 243 to 245 °C
//
compound: O=C1C2CCCC2=Nc2ccccc2N1Cc1ccc(Cl)cc1Cl (centres undefined)
melting point: 144 to 145 °C

Exercise: Look at this compound and give its reported melting point. O=C(CCc1ccccc1)N[C@H](Cc1ccc(C(F)(F)F)cc1)[C@@H](O)c1ccc(Oc2ccccc2)cc1 (racemic)
Key: 133 to 134 °C

Exercise: Now try Cc1cc(-n2ccnc2)ccc1[N+](=O)[O-] .
Key: 138 to 140 °C

Exercise: Now try COc1ccccc1C1(O)c2cc(NC(=O)CC(C)(C)C)c(C)c(C)c2OC1(C)C (centres undefined) .
Key: 168 to 169 °C

Exercise: Now try COc1cc(Cc2sc3ccccc3c2S(=O)(=O)Nc2onc(C)c2Br)cc(OC)c1OC .
Key: 154 to 156 °C

###

Listed here are compounds together with their documented melting point.

Example entries and their recorded answers appear below.
molSmiles: COc1cc(C2=C(c3c[nH]c4cccnc34)C(=O)NC2=O)cc(OC)c1OC
melting point: 274 to 275 °C
--
molSmiles: O=C(O)c1ccnc(-c2cccc3cc(Cc4cc(F)cc(Cl)c4)sc23)c1
melting point: 205 to 206 °C
--
molSmiles: Cc1cc(Cl)ccc1N1C(=O)c2ccc(Br)cc2C1=O
melting point: 207 to 210 °C
--
molSmiles: COc1cc(NP(=O)(OC)OC)ccc1NC(=O)OCc1ccccc1
melting point: 115 °C
--
molSmiles: N#Cc1cc(O)n(-c2ccccc2)n1
melting point: 190 °C
--
molSmiles: CC1(C)SC(=N)NC1=O
melting point: 252 to 254 °C
--
molSmiles: O=C(Nc1ccc2c(c1)CCNO2)c1cc2cc(F)ccc2n1Cc1cccc(F)c1
melting point: 216 to 217 °C
--
molSmiles: COc1ccc(C=Cc2ccc3cccc(O)c3n2)cc1
melting point: 108 to 110 °C

Exercise: Look at this compound and give its reported melting point. COc1ccc(C2(CCCCl)S(=O)(=O)CCCS2(=O)=O)cc1OC
Key: 183 to 184 °C

Exercise: Now try Fc1cc(C(F)(F)F)ccc1/C=C/c1nc(COc2ccc(-c3nc(Cn4ccnc4)co3)cc2)co1 .
Key: 150 to 153 °C

###

endpointName: melting point

Example entries and their recorded answers appear below.
compound: O=C(c1ccccc1)c1ccc(Oc2ccc(S(=O)(=O)Cc3ccccc3)cn2)cc1
measured: 146 to 147 °C
--
compound: Cc1nc2ccccn2c(=O)c1CCN1CC[C@H](Nc2nc3ccccc3n2Cc2ccc(F)cc2)[C@H](C)C1 (relative stereo)
measured: 161 °C
--
compound: Cc1noc(NS(=O)(=O)c2ccc(NCC(=O)O)cc2-c2ccc(CC(C)C)cc2)c1C
measured: 73 to 78 °C

Shifting focus to the compound that follows.
Exercise: Look at this compound and give its reported melting point. FC(F)(F)c1nc(Cl)c2cc(I)ccc2n1
Key: 145 to 146 °C

###

Residues, ends and D or L forms follow the SMILES beside them. *: point of attachment. Boc = CC(C)(C)OC(=O)*
Listed here are molecules together with their documented melting point.

molecule: Cc1nc(O)c(F)c(Cl)n1
endpointName: melting point
measured: 214 to 216 °C
//
molecule: O=C(Nc1ccc(F)c(Cl)c1F)C(F)(F)F
endpointName: melting point
measured: 73 to 74 °C
//
molecule: CCOC(=O)Cn1c(=O)sc2cc(-c3ccccc3)c(Cl)cc21
endpointName: melting point
measured: 130 to 131 °C
//
molecule: CC(=O)Nc1ccc(S(=O)(=O)Nc2nncs2)cc1
endpointName: melting point
measured: 214 to 215 °C
//
molecule: Cc1cc(NC(=O)C(=O)N2C(C)COCC2C)cc(C)c1S(=O)(=O)C[N+](=O)[O-] (centres undefined)
endpointName: melting point
measured: 140 to 141 °C
//
molecule: CC(C)CC(N)C(=O)NC(CCCCNC(=O)OC(C)(C)C)C(=O)O (centres undefined) (H-Leu-Lys(Boc)-OH; configuration not given here)
endpointName: melting point
measured: 142 to 143 °C

Exercise: Look at this molecule and give its reported melting point. CCCCc1nc(C(F)(F)CCC)nn1Cc1ccc(-c2ccccc2-c2nnn[nH]2)cc1
Key: 165 to 168 °C

Exercise: Now try CC(=O)SCC(Cc1cccnc1)C(=O)Nc1cccc(C(=O)O)c1 (centres undefined) .
Key: > 200 °C

###

endpointName: melting point

Example entries and their recorded answers appear below.
compound: BrCCCCOc1ccc(OCCCBr)cc1
measured: 73 to 76 °C
--
compound: CCOC(=O)CNC(=O)C(=O)NCC(OC)OC
measured: 63 to 65 °C
--
compound: O=C(NCC(O)c1ccccc1)c1ccccc1 (stereo unspecified)
measured: 140 to 143 °C
--
compound: CO[C@@H]1CC[C@@H](NC(C)=O)c2ccccc21 (relative stereo)
measured: 97 to 100 °C
--
compound: CCC(C)(C)c1cc(-c2ccc(F)c(C=C3SC(N4CCOCC4)=NC3=O)c2)ccc1O
measured: 246 to 247 °C

Exercise: Look at this compound and give its reported melting point. N#CCc1nc(C(=O)c2ccccc2)no1
Key: 96.5 to 97.5 °C

Exercise: Now try CS(=O)(=O)NCCS(=O)(=O)N1CCN(S(=O)(=O)c2ccc(-c3ccc(Cl)cc3)s2)[C@@H](C(=O)NO)C1 .
Key: 118 to 122 °C

Exercise: Now try O=C(Nc1ccccn1)Nc1cccc2c1C1CC3(CCN1C2=O)SCCS3 (stereo unspecified) .
Key: 242 °C

Exercise: Now try CCOc1cc(CCl)ccc1OCc1nc(-c2ccccc2)oc1C .
Key: 138 to 139 °C

###

Listed here are compounds together with their documented melting point.

compound: CN(CC(=O)[C@H](Cc1ccccc1)NC(=O)N1CCOCC1)C(=O)N1CCC[C@H]1C(=O)O
measured: 75 to 90 °C

Exercise: Look at this compound and give its reported melting point. Cc1ccncc1-n1nc(C)c(CC(=O)O)c1-c1ccccc1
Key: 246 °C

Exercise: Now try CCCCn1nc(CCc2cccs2)nc1Cc1ccc(-c2ccccc2-c2nnn[nH]2)nc1 .
Key: 116 to 118 °C

Exercise: Now try CC(C)Oc1cccc(C=C(C=O)C(C=O)=Cc2cccc(OC(C)C)c2)c1 .
Key: 116 to 117 °C

Exercise: Now try O=C(CCCl)Nc1ccc2[nH]ncc2c1 .
Key: 158 to 160 °C

Exercise: Now try CN1CCC(N2C(=O)Nc3ccccc3C2c2ccccc2)CC1 (stereo not given) .
Key: 252 to 253 °C

Exercise: Now try CCCCCOc1ccc(-c2ccc(-c3ccc(C(=O)OC)cc3)cc2)cc1 .
Key: 248 °C

###

Listed here are compounds together with their documented melting point.

compound: COC(=O)c1cc(C)nn1-c1ncc(Cl)cc1Cl
melting point: 97 to 98 °C
--
compound: O=C1CCC(n2cnc3ccc(Br)cc3c2=O)C(=O)N1 (stereo unspecified)
melting point: 273 to 275 °C
--
compound: COCc1nc2cnc3ccccc3c2n1CC(C)(C)O
melting point: 145 to 148 °C
--
compound: Cn1cc(SCc2ccccc2)c(=O)c(-c2cccc(C(F)(F)F)c2)c1
melting point: 121 to 122 °C

Exercise: Look at this compound and give its reported melting point. Cc1nc(-c2ccc3c(c2)OCO3)c2cc3c(cc2n1)OCO3
Key: 207 to 210 °C

Exercise: Now try CCCCCCCCCCCCCCCCCCOc1cc(O)cc(C(=O)OCc2ccccc2)c1 .
Key: 72 to 75 °C

Exercise: Now try CCCc1c(OCC(O)COc2ccc3c(=O)cc(C=CC(=O)O)oc3c2CCC)ccc(C(C)=O)c1O (stereo unspecified) .
Key: 101 to 103 °C

###

Listed here are compounds together with their documented melting point.

Example entries and their recorded answers appear below.
compound: N#CC(Cc1ccccc1)(Cc1ccccc1)C(=O)O
melting point: 194 °C
//
compound: COc1nc(N)nc2c1ncn2C1OC(CO)C(OC(=O)c2ccccc2)C1O (centres undefined)
melting point: 155 to 157 °C

Exercise: Look at this compound and give its reported melting point. COC(=O)C(C)C(C#Cc1ccccc1)c1ccc(OC)c(OC2CCCC2)c1 (racemic)
Key: 52 to 54 °C

Exercise: Now try COc1ccc(-c2cc3ccc(C)cc3[nH]2)cc1 .
Key: 220 °C

Exercise: Now try Cc1ccc(-n2c3ccccc3c3cc(C(C#N)=C(C#N)C#N)ccc32)cc1 .
Key: 233 to 234 °C

Exercise: Now try C/C(=C(\C#N)C(=S)/N=C/N(C)C)N1CCCN(c2ccc3c(c2)OCCO3)CC1 .
Key: 127 to 129 °C

Exercise: Now try CN1CCN(Cc2ccc(-c3cc4ncnc(Nc5ccc6[nH]ccc6c5)c4s3)cc2)CC1 .
Key: 143 to 150 °C

Exercise: Now try O=C1[C@H]2CCC[C@H]2Nc2ccc(F)cc2N1Cc1ccccc1 (relative stereo) .
Key: 124 to 126 °C

Exercise: Now try CC(CCC(=O)O)(c1ccc(OCc2ccc3ccccc3c2)cc1)c1ccc(OCc2ccc3ccccc3n2)cc1 (centres undefined) .
Key: 64 to 68 °C
